Test system: RAW-Dual
Assay: NF-kB SEAP reporter activity, fold change vs agonist alone; cytotoxicity flag (confluency mask): not cytotoxic; higher = enhanced NF-kB activity
Conditions: agonist: Pam2CSK4 (TLR2/6) 0.1 ug/mL
Whole data set: some 2,900 compounds, median “NF-kB SEAP reporter activity, fold change vs agonist alone” near 0.99, cut for the highest 2% near 2.6. The entries come from a sample that favours the highest values as a whole.
Recorded NF-kB SEAP reporter activity determines the label; the label ranges are one (below 0.8), two (0.8 to below 1), three (1 or more)

stdin: State the class of the molecule shown: CCc1cc2c(cc1N1CCC(N3CCOCC3)CC1)C(C)(C)c1[nH]c3cc(C#N)ccc3c1C2=O.Cl (library stock concentration (final ~1000-fold dilution): 2 mM)
stdout: three

stdin: State the class of the molecule shown: CCCCCCCCCC(=O)NC(Cc1c[nH]c2ccccc12)C(=O)NC(CC(N)=O)C(=O)NC(CC(=O)O)C(=O)NC1C(=O)NCC(=O)NC(CCCN)C(=O)NC(CC(=O)O)C(=O)NC(C)C(=O)NC(CC(=O)O)C(=O)NCC(=O)NC(CO)C(=O)NC(C(C)CC(=O)O)C(=O)NC(CC(=O)c2ccccc2N)C(=O)OC1C (configuration not stated) (library stock concentration (final ~1000-fold dilution): 10 mM)
stdout: three

stdin: State the class of the molecule shown: COc1cc2oc(=O)ccc2c(OC)c1CC(O)C(C)(C)O (configuration not stated) (library stock concentration (final ~1000-fold dilution): 10 mM)
stdout: three

stdin: State the class of the molecule shown: c1ccc(-c2nn3c(c2-c2ccnc4cc(OCCN5CCOCC5)ccc24)CCC3)nc1 (library stock concentration (final ~1000-fold dilution): 2 mM)
stdout: three

stdin: State the class of the molecule shown: C=C1CCC2C(C)(CO)C(O)CC[C@@]2(C)[C@@H]1C/C=C1/C(=O)OCC1O (some centres not stated) (library stock concentration (final ~1000-fold dilution): 10 mM)
stdout: one

stdin: State the class of the molecule shown: CCC1OC(=O)C(C)C(OC2CC(C)(OC)C(O)C(C)O2)C(C)C(OC2OC(C)CC(N(C)C)C2O)C(C)(O)CC(C)CN(C)C(C)C(O)C1(C)O.O.O (configuration not stated) (library stock concentration (final ~1000-fold dilution): 10 mM)
stdout: two

stdin: State the class of the molecule shown: Cc1nc(-c2nc(-c3ccc(OC(F)(F)F)cc3)no2)nn1Cc1cccc(N2CCC(S(C)(=O)=O)CC2)c1 (library stock concentration (final ~1000-fold dilution): 10 mM)
stdout: one

stdin: State the class of the molecule shown: O=C(O)CCn1c2c(c3ccccc31)CC(NS(=O)(=O)c1ccc(F)cc1)CC2 (configuration not stated) (library stock concentration (final ~1000-fold dilution): 10 mM)
stdout: three

stdin: State the class of the molecule shown: O=c1cc(-c2ccccc2)oc2c1ccc1ccccc12 (library stock concentration (final ~1000-fold dilution): 10 mM)
stdout: two

stdin: State the class of the molecule shown: COc1ccc2c(-c3ccc(O)c(C)c3)ccnc2c1 (library stock concentration (final ~1000-fold dilution): .1 mM)
stdout: one

Data provenance: the supplement of paper PMC10037445
